Consider the following compounds; for each one, report its melting point.

Consider the reported melting point for these compounds:
CCC(CC)c1ccc(Cl)c2nc3n(c12)CCCCN3c1ccc(N(C)C)cc1OC(F)(F)F [Example 53]: 158 to 159 °C
CCC(OC(C)=O)c1ccc(Cl)c2nc3n(c12)CCCCN3c1ccc(OC)cc1Cl (centres unmarked) [Example 334]: 177 to 179 °C
CCC(CC)c1ccc(Cl)c2nc3n(c12)CCCCN3c1c(C)noc1C [Example 343]: 163 to 164 °C
CCC(c1cccc2nc3n(c12)CCCN3c1ccc(Cl)cc1Cl)N(C)C (centres unmarked) [Example 203]: 144 to 145 °C
CCC(c1ccc(Cl)c2nc3n(c12)CCCN3c1c(C)nc(OC)nc1C)C(F)F (centres unmarked) [Example 222]: 181 to 183 °C

List melting point for every entry below, keeping the order given.
1. CCC(CC)c1ccc(Cl)c2nc3n(c12)CCCCN3c1ncc(S(C)(=O)=O)cc1C [Example 341]
2. O=C(c1cccc2nc3n(c12)CCCN3c1ccc(Cl)cc1Cl)C1CC1 [Example 199]
3. CCC(O)c1ccc(Cl)c2nc3n(c12)CCCN3c1c(Br)cc(OC)cc1Br (centres unmarked) [Example 397]

["137 to 139 °C", "189 to 190 °C", "138 to 140 °C"]

* * *

Consider the following compounds; for each one, report its IC50.
- SYSTEM NAME: human CRF1 receptor (Homo sapiens, UniProt P34998)
- Sequence (P34998 24-415): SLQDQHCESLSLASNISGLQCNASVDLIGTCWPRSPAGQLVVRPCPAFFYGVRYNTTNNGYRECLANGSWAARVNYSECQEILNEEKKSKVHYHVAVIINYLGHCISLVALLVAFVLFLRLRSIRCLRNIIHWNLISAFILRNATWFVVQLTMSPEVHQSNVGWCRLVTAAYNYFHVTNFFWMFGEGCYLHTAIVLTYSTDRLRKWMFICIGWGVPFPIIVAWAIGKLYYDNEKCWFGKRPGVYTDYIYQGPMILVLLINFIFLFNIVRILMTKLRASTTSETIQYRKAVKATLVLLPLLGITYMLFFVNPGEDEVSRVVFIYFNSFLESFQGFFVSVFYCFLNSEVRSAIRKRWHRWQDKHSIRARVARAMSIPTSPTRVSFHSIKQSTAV
- PROTOCOL TEXT: Measurement of CRF Binding Inhibitory Rate (receptor binding experiment with 125I-CRF)
- CONDITION PARAMETERS: human CRF1 receptor expressing CHO cellular membrane fraction, 50 pM 125I-CRF, room temperature 1.5 hr, 0.05 nM to 10 μM of compound; read-out: IC50 values (CRF binding inhibition)

Consider the reported IC50 for these compounds:
CCC(CC)c1ccc(Cl)c2nc3n(c12)CCN3c1ncc(C(F)(F)F)cc1Cl: < 1000 nM
CCN(CC)c1cccc2nc3n(c12)CCC=C3c1ccc(Cl)cc1Cl: < 1000 nM
COc1ccc(N2CCCn3c2nc2c(Cl)ccc(C(O)(C4CC4)C4CC4)c23)c(C)c1: < 1000 nM

List IC50 for every entry below, keeping the order given.
1. CCC(NC(C)=O)c1ccc(Cl)c2nc3n(c12)CCCN3c1ccc(Cl)cc1Cl (centres unmarked)
2. CCN(CC)c1cccc2nc3n(c12)CC(F)(F)CCN3c1ccc(Cl)cc1Cl
3. COc1nc(C)c(N2CCCn3c2nc2c(Cl)ccc(C(OCC(F)(F)F)C4CC4)c23)c(C)n1 (centres unmarked)
4. CCC(CC)c1ccc(Cl)c2nc3n(c12)CCN3c1ccccc1Cl
5. CCC(CC)c1ccc(Cl)c2nc3n(c12)CCCC(=O)N3c1ccc(Cl)cc1Cl

["< 1000 nM", "< 1000 nM", "< 1000 nM", "< 1000 nM", "< 1000 nM"]

List IC50 for every entry below, keeping the order given.
1. CCC(CC)c1ccc(Cl)c2nc3n(c12)CCCCN3c1ccc(Cl)cc1Cl
2. CCC(OC(C)=O)c1ccc(Cl)c2nc3n(c12)CCCN3c1ccc(OC)cc1Cl (centres unmarked)
3. CCC(OC(=O)CO)c1ccc(Cl)c2nc3n(c12)CCCN3c1ccc(Cl)cc1Cl (centres unmarked)
4. CCC(OCC(F)(F)F)c1ccc(Cl)c2nc3n(c12)CCCN3c1ccc(Cl)cc1Cl (centres unmarked)
5. CCC(OC(C)=O)c1ccc(Cl)c2nc3n(c12)CCCN3c1ccc(OC)nc1C (racemic) [Example 265]

1: < 1000 nM; 2: < 1000 nM; 3: < 1000 nM; 4: < 1000 nM; 5: < 1000 nM

List IC50 for every entry below, keeping the order given.
1. CCC(NC(=O)C(F)F)c1ccc(Cl)c2nc3n(c12)CCCN3c1c(Cl)cc(Cl)cc1Cl (centres unmarked)
2. CCN(CC)c1cc(F)cc2nc3n(c12)CCCN3c1ccc(Cl)cc1Cl
3. CCC(CC)c1ccc(Cl)c2nc3n(c12)CCCCN3c1ncc(Cl)cc1Cl
4. CCC(OC(C)=O)c1ccc(Cl)c2nc3n(c12)CCCN3c1ccc(Cl)cc1Cl (single isomer, unassigned; (-)) [Example 239]

< 1000 nM
< 1000 nM
< 1000 nM
< 1000 nM

* * *

Consider the following compounds; for each one, report its melting point.

Consider the reported melting point for these compounds:
CCC(c1ccc(Cl)c2nc3n(c12)CCCN3c1ccc(Cl)cc1Cl)S(=O)(=O)CC (centres unmarked): 278 to 280 °C
CCC(NC(=O)CC(F)(F)F)c1ccc(Cl)c2nc3n(c12)CCCN3c1ccc(Cl)cc1Cl (centres unmarked): 285 to 290 °C

List melting point for every entry below, keeping the order given.
1. CCC(CC)c1ccc(Cl)c2nc3n(c12)CCCCN3c1ccc(N(C)C)cc1C
2. CCC(NC(=O)C1CC1)c1ccc(Cl)c2nc3n(c12)CCCN3c1ccc(Cl)cc1Cl (centres unmarked)
3. CCOC(CC)c1ccc(Cl)c2nc3n(c12)CCCN3c1ccc(OC)nc1C (centres unmarked)
4. CN(C)Cc1cccc2nc3n(c12)CCCN3c1ccc(Cl)cc1Cl
5. CCC(CC)c1ccc(Cl)c2nc3n(c12)CCCCN3c1ccc(C)cc1Br
6. O=C(c1cccc2nc3n(c12)CCCN3c1ccc(Cl)cc1Cl)N1CC(O)C1

174 to 175 °C
251 to 253 °C
174 to 176 °C
158 to 159 °C
152 to 155 °C
257 to 258 °C

* * *

MEASURE NAME: melting point

Consider the reported melting point for these molecules:
CCC(CCO)c1ccc(Cl)c2nc3n(c12)CCCN3c1ccc(Cl)cc1Cl (centres unmarked) [Example 450]: 183 to 185 °C
COC(c1cccc2nc3n(c12)CCCN3c1ccc(Cl)cc1Cl)C(F)(F)F (centres unmarked) [Example 202]: 164 to 165 °C

List melting point for every entry below, keeping the order given.
1. CCN(CC)Cc1cccc2nc3n(c12)CCCN3c1ccc(Cl)cc1Cl [Example 89]
2. CCC(O)c1ccc(Cl)c2nc3n(c12)CCCN3c1ccc(Cl)cc1Cl (single isomer, unassigned; (-)) [Example 438]
3. CCC(OC(C)=O)c1ccc(Cl)c2nc3n(c12)CCCN3c1ccc(OC)cc1Cl (centres unmarked) [Example 260]
4. Cc1nc(OC(F)F)nc(C)c1N1CCCn2c1nc1c(Cl)ccc(C(OC(F)F)C(F)(F)F)c12 (centres unmarked) [Example 216]
5. CCN(CC)c1cccc2nc3n(c12)CC(CC(=O)O)N3c1ccc(Cl)cc1Cl (centres unmarked) [Example 73]
6. CC/C(=N\OC(F)F)c1ccc(Cl)c2nc3n(c12)CCCN3c1c(C)nc(OC)nc1C [Example 193]
7. Cc1nc(N(C)C)ccc1N1CCCn2c1nc1c(Cl)ccc(C(OC(F)F)C(F)(F)F)c12 (centres unmarked) [Example 298]

1: 112 to 114 °C; 2: 221 to 223 °C; 3: 178 to 180 °C; 4: 165 to 166 °C; 5: 249 to 251 °C; 6: 199 to 200 °C; 7: 233 to 235 °C

List melting point for every entry below, keeping the order given.
1. CCCC(O)(CCC)c1ccc(Cl)c2nc3n(c12)CCCN3c1ccc(Cl)cc1C(F)(F)F [Example 129]
2. CCN(CC)c1cccc2nc3n(c12)CC(CCO)N3c1ccc(Cl)cc1Cl (centres unmarked) [Example 74]
3. Cc1nc(NC2CC2)ccc1N1CCCn2c1nc1c(Cl)ccc(C(OC(F)F)C(F)(F)F)c12 (centres unmarked) [Example 299]
4. CCN(CC)c1cccc2nc3n(c12)CC(N)CCN3c1ccc(Cl)cc1Cl (centres unmarked) [Example 363]
5. NC(=O)c1cccc2nc3n(c12)CCCN3c1ccc(Cl)cc1Cl [Example 83]
6. CCC(OC(=O)C1CC1)c1ccc(Cl)c2nc3n(c12)CCCN3c1ccc(Cl)cc1Cl (centres unmarked) [Example 431]
7. Cc1nc(N2CCN(C)CC2)ccc1N1CCCn2c1nc1c(Cl)ccc(C(OC(F)F)C(F)(F)F)c12 (centres unmarked) [Example 297]
8. CCC(OC(C)=O)c1ccc(Cl)c2nc3n(c12)CCCN3c1ccc(OC)nc1C (racemic) [Example 265]

1: 200 to 202 °C; 2: 222 to 223 °C; 3: 168 to 170 °C; 4: 149 to 151 °C; 5: 198 to 200 °C; 6: 159 to 161 °C; 7: 193 to 195 °C; 8: 157 to 159 °C

* * *

MEASURE NAME: melting point

CCC(CC)c1ccc(Cl)c2nc3n(c12)CCN3c1ccc(C(N)=O)cc1Cl: 225 to 229 °C

List melting point for every entry below, keeping the order given.
1. Cc1nc(OC(C)C)nc(C)c1N1CCCn2c1nc1c(Cl)ccc(C(OC(F)F)C(F)(F)F)c12 (centres unmarked)
2. COC(C)(C)c1ccc(Cl)c2nc3n(c12)CCCN3c1ccc(Cl)cc1Cl
3. CCC(CC)c1ccc(Cl)c2nc3n(c12)CCCCN3c1ccc([S+](C)[O-])cc1C (centres unmarked)
4. CCN(CC)c1cccc2nc3n(c12)CCCN3c1cnc(OC)nc1OC
5. CCN(CC)c1cccc2nc3n(c12)CC(CO)N3c1ccc(Cl)cc1Cl (centres unmarked)
6. COc1ccc(N2CCCn3c2nc2c(Cl)ccc(C(O)(C4CC4)C4CC4)c23)c(C)c1
7. FC(F)(F)C(OC1CC1)c1ccc(Cl)c2nc3n(c12)CCCN3c1ccc(Cl)cc1Cl (centres unmarked)

1. 227 to 230 °C
2. 203 to 204 °C
3. 189 to 190 °C
4. 170 to 171 °C
5. 187 to 190 °C
6. 181 to 182 °C
7. 197 to 200 °C
